Biological target: T1, DLG3_1, Q92796
T1 sequence (Q92796 125-227, limits assumed, looked up): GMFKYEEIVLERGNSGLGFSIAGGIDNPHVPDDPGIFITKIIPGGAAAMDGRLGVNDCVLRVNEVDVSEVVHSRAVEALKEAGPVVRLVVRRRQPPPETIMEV
Test: holdup assay
Parameters: key: below the threshold = too weak to quantify, mostly under pKd 3.1 to 4
Conditions: plain residues with an end cap or a label only (N-terminal biotin on a linker: ahx)
experimental.readout: pKd

Consider the reported pKd for these binders:
[[record]]
binder = "HTHSYIETHV [CNKSR2, Q8WXI2]"
experimental_readout = "pKd"
measurement = 4.08

[[record]]
binder = "APSRKLNTEI [TIAM1, Q13009]"
experimental_readout = "pKd"
measurement = "below the threshold"

[[record]]
binder = "TQKFRASTAL [FRMPD1, Q5SYB0]"
experimental_readout = "pKd"
measurement = "below the threshold"

[[record]]
binder = "EKQAKGDTEF [CACYBP, Q9HB71]"
experimental_readout = "pKd"
measurement = "below the threshold"

[[record]]
binder = "QNTDDVQTSF [ACE2, Q9BYF1]"
experimental_readout = "pKd"
measurement = "below the threshold"


Req: Write down pKd measured for item QDEKVKESYV [ABCA1, O95477]
Resp: 4.29

Req: For the binder TEAKLTETNA [MYO18A, Q92614] , report pKd.
Resp: below the threshold

Req: Please give the documented pKd of TESNLQTSSC [CGN, Q9P2M7]
Resp: below the threshold

Req: Retrieve pKd measured for QPRTWLQSPV [RTKN, Q9BST9] and print it.
Resp: below the threshold
